tested on: ACHN renal; test: NCI-60 one-dose screen, 48 h (100 = growth as untreated, 0 = no growth, -100 = all killed); settings: 10 µM unless noted
The panel holds about 83,000 compounds, 20% with a hit somewhere; the sample as a whole holds those more often.
// values below are reported growth
Readout Type: growth (%)

>>> print(df.to_string())
                                    molecule  target_desc  readout_number
 0  C=C(C)[C@H]1CC/C(C)=C/CC[C@]2(C)O[C@H]2CC/C(COC(C)=O)=C\C1=O   ACHN renal            98.9
 1              NC(N)=NN=c1c(=O)c2ccccc2c1=O   ACHN renal              78
 2             S=C1SCN(Cc2ccccc2)CN1Cc1ccco1   ACHN renal             107
 3            Clc1nc(Cl)c2ncn(-c3ccccc3)c2n1   ACHN renal            68.6
 4     O=C1c2nsnc2C(=O)c2c(F)c(F)c(F)c(F)c21   ACHN renal           -97.3
 5  COC(=O)c1ccc2c(c1)nc(-c1ccc(O)c(OC)c1)n2-c1cc(C(C)(C)C)[nH]n1   ACHN renal             108
 6  CCOC(=O)c1c(C)nc(C)c(C(=O)OCC)c1-c1cccnc1   ACHN renal            99.5
 7                   S=c1[nH]nc2sc3ccccc3n12   ACHN renal            99.2
 8  COc1cc(/C=C/c2nnc(-c3cc(-c4ccccc4)n[nH]3)o2)cc(OC)c1OC   ACHN renal            91.3
 9  COc1ccc(-c2nn(-c3ccccc3)cc2/C=C2\SC(=S)N(CCc3ccc(O)cc3)C2=O)cc1   ACHN renal            87.5
10      O=C(OCCBr)c1ccc(Cl)c([N+](=O)[O-])c1   ACHN renal             104
11          Nc1ccccc1-c1ccc([N+](=O)[O-])cc1   ACHN renal            46.1
12  CC12CCCCC1C(C(N)=O)C(=O)O2 (centres undefined)   ACHN renal             112
13   Oc1ccccc1C=Nc1ccccc1N=Cc1ccccc1O.[Cu+2]   ACHN renal            57.3
14  CC[C@H](C)C(=O)O[C@H]1C[C@@H](C)C=C2C=C[C@H](C)[C@H](CC[C@@H]3C[C@@H](O)CC(=O)O3)[C@H]21   ACHN renal            32.9
15  O=c1[nH]c(=O)n(C2CC(O)C(CO)O2)cc1C(F)(F)F (centres undefined)   ACHN renal            24.6
16         O=c1cc(-c2cccnc2)oc2c1ccc1ccccc12   ACHN renal            69.6
17                         CCCc1cccc(CCC)c1O   ACHN renal             115
18  COc1cccc2c1O/C(=C\c1c([N+](=O)[O-])ncn1C)C2=O   ACHN renal              89
19  CCCCCCCC1(C)NC(=O)NC1=O (centres undefined)   ACHN renal             101
20             COc1ccc2[nH]c(-c3ccccc3)cc2c1   ACHN renal             101
21         Nc1nc(N)c([N+](=O)[O-])c(=O)[nH]1   ACHN renal            98.7
22  CCN(CC)c1ccc(N=Nc2cc(Cl)ccc2Cl)c(NC(=O)CCC(=O)O)c1   ACHN renal            88.8
23  N=C(N)/N=C(\CCc1nc2ccccc2[nH]1)c1nc2ccccc2[nH]1   ACHN renal            92.3
